# procedure details: Dynamic vapor sorption (DVS)
# Type: physicochemical
# conditions: 20-80% RH
experimental readout: Behavior in DVS: Δm (20-80% RH)

compound: CC#CC(=O)N1CCC[C@H]1c1nc(-c2ccc(C(=O)Nc3ccccn3)cc2)c2c(N)nccn12.O=C(O)C(O)C(O)C(=O)O [L-Tartrate]
experimental readout: Behavior in DVS: Δm (20-80% RH)
result value: ~0.7% (20-80% RH)

compound: CC#CC(=O)N1CCC[C@H]1c1nc(-c2ccc(C(=O)Nc3ccccn3)cc2)c2c(N)nccn12.O=P(O)(O)O [Phosphate]
experimental readout: Behavior in DVS: Δm (20-80% RH)
result value: ~0.7% (20-80% RH)

Shifting focus to the compound that follows.
Name the recorded Behavior in DVS: Δm (20-80% RH) of the compound listed here: CC#CC(=O)N1CCC[C@H]1c1nc(-c2ccc(C(=O)Nc3ccccn3)cc2)c2c(N)nccn12.O=C(O)/C=C/C(=O)O [Fumarate]
~0.8% (20-80% RH)
